assay: NCI Yeast Anticancer Drug Screen. Data for the mgt1 strain (AID 153); conditions: S. cerevisiae mgt1 mutant growth inhibition; at 3.7 µM; stronger effect = higher value
This is part of a sample that, as a whole, favours compounds with a hit. Of some 79,000 tested, about 15% had one in any assay.
assay-endpoint: growth inhibition (%)
Kindly provide the numeric value in % only, without the unit symbol.

O=C(Nn1c(-c2ccccc2)nc2ccccc2c1=O)c1ccc(Cl)cc1 :: -19
O=C(Cc1ccccc1)c1ccc(O)cc1 :: -56
Cc1ccc(Cl)c2c(=O)c3ccccc3[nH]c12 :: -1
N=C(N)c1ccc(N=Nc2c(O)ccc3c2[nH]c2ccccc23)cc1 :: 2

Problem: Which growth inhibition is reported for this compound? CCOc1ccccc1N1C(=O)CC(Sc2ccccc2N)C1=O (stereo not given)
Solution: -10

Problem: Which growth inhibition is reported for this compound? Nc1nc(Nc2ccccc2)nc(Nc2ccccc2)n1
Solution: -7

Problem: Which growth inhibition is reported for this compound? CCOC(=O)/C(O)=C(/C=N/C(=S)Nc1c(CC)cccc1CC)C(=O)OCC
Solution: -6

Problem: Which growth inhibition is reported for this compound? COc1cc(NCCCCCNC(C)C)c2ncccc2c1Cl
Solution: -3

Problem: Which growth inhibition is reported for this compound? [N-]=[N+]=NC1CC(n2ccc(=O)[nH]c2=O)OC1COC(c1ccccc1)(c1ccccc1)c1ccccc1 (stereo not given)
Solution: 3

Problem: Which growth inhibition is reported for this compound? c1cc2ccc3cc4ncccc4c4ccc(c1)c2c34
Solution: -1
